System: T-47D breast
Assay: NCI tumour cell line growth inhibition, 48 h
Test readout: TGI (µM)
The response must be a number in µM with no trailing unit.

Completed entries (count: 4):
# Smiles string, TGI (µM)
measured = [
    ("NC(=S)N/N=C\\c1nccc2c(C(F)(F)F)cccc12", 25.7),
    ("Cc1ccc(S[C@@H](C)[C@@](O)(CF)CN(Cc2ccccc2)C(=O)C(F)(F)F)cc1", 68.5),
    ("COC(=O)[C@]12CC[C@@H](C)[C@H](C)[C@@H]1C1=CC[C@@H]3[C@@]4(C)C[C@@H](O)[C@H](O)[C@@](C)(CO)[C@@H]4[C@H](O)C[C@@]3(C)[C@]1(C)CC2", 29.1),
    ("COc1ccccc1NC(=O)c1cc2cc(Br)ccc2cc1O", 10.7),
]

## Input What measured TGI is associated with `CC[C@@H](c1ccc(O)c(O)c1)[C@@H](CC)c1ccc(O)c(O)c1` on T-47D breast?
## Output 7.96

## Input What measured TGI is associated with `C=C1C(=O)O[C@H]2[C@H]1CC/C(CNC(=O)c1cc3ccccc3[nH]1)=C\CC[C@@]1(C)O[C@@H]21` on T-47D breast?
## Output 4.8

## Input What measured TGI is associated with `Cc1cc(Nc2ccc(C)c(Cl)c2)n2nc(C(F)(F)F)nc2n1` on T-47D breast?
## Output 76

## Input What measured TGI is associated with `O=[N+]([O-])c1ccc2nc(Nc3ccccc3)c(Nc3ccccc3)nc2c1` on T-47D breast?
## Output 8.63

## Input What measured TGI is associated with `CC(=C(c1ccc(OCCN2CCCCC2)cc1)c1ccc(OCCN2CCCCC2)cc1)c1ccc(Cl)cc1` on T-47D breast?
## Output 1.04
